experimental-system: EGLN1
measurement-description: cell-based or functional assay
Where no end group is shown, it is not given here.
quantity-measured: Activity (%)*
Numbers only, in %.

binder: DTDLDVEAIAPYIPADDDFQ (not fully specified; printed as DTDLDVEAIApYIPADDDFQ) [DTDLDVEAIApYIPADDDFQ]
unit-of-measure: %
experimental-value: 45.3
//
binder: DTDLDAEATAPYIPADDDFQ [DTDLDAEATApYIPADDDFQ]
unit-of-measure: %
experimental-value: 20.8
//
binder: DTDLDLEAKAPYIPADDDFQ [DTDLDLEAKApYIPADDDFQ]
unit-of-measure: %
experimental-value: 63.2
//
binder: DTDLDLEAIAPYIPADDDFQ [DTDLDLEAIApYIPADDDFQ]
unit-of-measure: %
experimental-value: 88
//
binder: DTDLDAEALAPYIPADDDFQ [DTDLDAEALApYIPADDDFQ]
unit-of-measure: %
experimental-value: 51
//
binder: DTDLDLEACAPYIPADDDFQ [DTDLDLEACApYIPADDDFQ]
unit-of-measure: %
experimental-value: 41.3

Now examine the next entry.
Item: DTDLDLEMLHPYIPMDDDFQ (not fully specified; printed as DTDLDLEMLHpYIPMDDDFQ) [DTDLDLEMLHpYIPMDDDFQ] | Activity (%)*: 2.41
